Where do these numbers come from? They come from ChEMBL document CHEMBL4422630.

Test: Half life in human microsomes
Type: ADME, Microsome
parameter: half-life (h)

a: O=C(Cc1ccccc1)Nc1ccc(-c2nc3cc(NC(=O)Cc4ccccc4)ccc3[nH]2)cc1
b: Cc1ccc(S(=O)(=O)Cc2nc(-c3ccc(C(=O)NCc4cccnc4)cc3)oc2C)cc1
c: CC(C)C(=O)Nc1ccc2oc(-c3ccc(C(C)(C)C)cc3)nc2c1
// sort listed items: half-life descending Returns: the labels arranged in the requested order.
a, b, c
(a: 3.56 h, b: 1.44 h, c: 0.86 h)

###

Entries and their measured EC50 follow.
Test system: B-ALL
Test: Antiproliferative activity against mouse B-ALL cells expressing wild type BCR-ABL assessed as reduction in cell viability after 72 hrs by CellTiter-Glo assay
Type: functional, cell-based
Give the value, in units of µM, as a plain number.

Would you mind telling me what EC50 value was observed for `NC(=O)c1sccc1Nc1[nH]c(Nc2cccc(OC(F)(F)F)c2)nc2nncc1-2` ?
3.14

Find the recorded EC50 belonging to `CCN(CC)c1ccc(-n2cnnc2-c2cccc(O)c2)cc1` and report it.
2.03

Entry `COc1ccc(O)c(-c2cc(-c3ccc(Cl)cc3)[nH]n2)c1` : reported EC50 = ?
8.04

What value of measured EC50 is listed for `COc1ccc(-c2[nH]nc(C)c2-c2ccc(OC)c(O)c2)c(O)c1` ?
8.53

Requested field: EC50. Item: `O=C(c1cc(-c2csc(-c3ccc(O)cc3)n2)c[nH]1)N1CCCC1`
3.98

Bench note: what EC50 did `c1ccc2[nH]c(-c3ccc(-c4nc5ccccc5[nH]4)nc3)nc2c1` show?
7.89

EC50 for `COc1ccc(O)c(-c2cc(-c3cc(Cl)ccc3O)[nH]n2)c1` ?
4.94

// query EC50 value for entry `Cc1ccc(S(=O)(=O)Cc2nc(-c3ccc(C(=O)NCc4cccnc4)cc3)oc2C)cc1`
0.072

Entry CS(=O)(=O)c1ccc(-c2cccc3c2OC(CNC(=O)c2ccccc2F)C3)cc1 (stereo not drawn) : reported EC50 = ?
8.88

Using the record for `CC(C)C(=O)Nc1ccc2oc(-c3ccc(C(C)(C)C)cc3)nc2c1` , report its EC50.
4.65

###

Test system: KOPN-8
Assay: Antiproliferative activity against human KOPN8 assessed as reduction in cell viability after 72 hrs by CellTiter-Glo assay
Assay type: functional, cell-based
Conditions: KOPN-8, 72 h
Some molecules, each annotated with its measured pEC50.
For clarity, pEC50 is expressed as the negative log10 of concentration in mol/L.

For the molecule shown here, `NC(=O)c1sccc1Nc1[nH]c(Nc2cccc(OC(F)(F)F)c2)nc2nncc1-2` , give the reported pEC50.
4.88

Consider the molecule shown here: `COc1ccc(O)c(-c2cc(-c3ccc(Cl)cc3)[nH]n2)c1` What is its recorded pEC50?
5.85

Param item = `c1ccc2[nH]c(-c3ccc(-c4nc5ccccc5[nH]4)nc3)nc2c1` ; retrieve measured pEC50.
5.75

Any idea what pEC50 was measured for `COc1ccc(O)c(-c2cc(-c3cc(Cl)ccc3O)[nH]n2)c1` ?
4.80

Query (molecule): `Cc1ccc(S(=O)(=O)Cc2nc(-c3ccc(C(=O)NCc4cccnc4)cc3)oc2C)cc1` ; field requested: pEC50
5.91

###

Assay: Intrinsic clearance in mouse microsomes
Assay type: ADME, Microsome
parameter: CLint scaled (mL/min/kg)

a: CC(C)C(=O)Nc1ccc2oc(-c3ccc(C(C)(C)C)cc3)nc2c1
b: O=C(Cc1ccccc1)Nc1ccc(-c2nc3cc(NC(=O)Cc4ccccc4)ccc3[nH]2)cc1
c: Cc1ccc(S(=O)(=O)Cc2nc(-c3ccc(C(=O)NCc4cccnc4)cc3)oc2C)cc1
With regard to CLint scaled, arrange the entries in ascending order, please. Please respond with the labels ordered as the question requires.
b, a, c
